# measuredTarget: CYP2D6 (Homo sapiens, UniProt P10635)
# Construct: human liver microsomes (0.25 mg/mL); from tissue; host or cells: human liver microsomes
# Sequence (P10635 whole entry): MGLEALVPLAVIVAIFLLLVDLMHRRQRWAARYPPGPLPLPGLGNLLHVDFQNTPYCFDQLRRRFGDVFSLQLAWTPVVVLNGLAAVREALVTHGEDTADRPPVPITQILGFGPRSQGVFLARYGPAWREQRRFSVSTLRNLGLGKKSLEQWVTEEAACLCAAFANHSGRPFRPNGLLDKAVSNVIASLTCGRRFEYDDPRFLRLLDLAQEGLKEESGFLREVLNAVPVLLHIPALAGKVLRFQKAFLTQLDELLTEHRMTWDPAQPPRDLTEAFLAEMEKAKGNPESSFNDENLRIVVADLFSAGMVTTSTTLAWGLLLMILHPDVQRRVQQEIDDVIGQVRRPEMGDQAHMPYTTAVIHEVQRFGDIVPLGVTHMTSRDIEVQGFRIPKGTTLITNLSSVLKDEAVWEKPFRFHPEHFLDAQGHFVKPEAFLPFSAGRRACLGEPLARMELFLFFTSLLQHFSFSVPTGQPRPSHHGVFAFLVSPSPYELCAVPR
# measurementNotes: CYP isoenzyme activity inhibition in human liver microsomes, CYP2D6
# Assay type: in vitro ADME
# experimentalConditions: 10 µM compound; human liver microsomes 0.25 mg/mL; relative to control without compound
measuredAttribute: CYP2D6 (% activity)

Recorded results for 2 compounds are shown here.
INSERT INTO assay_data (compound, observedresult) VALUES
  ('CN1CCN(c2nc3ccc(NN=C(C#N)C#N)cc3s2)CC1 [Compound 8]', '> 100 % activity'),
  ('CN1CCN(c2nc3ccc(NN=C(C#N)C#N)cc3o2)CC1 [Compound 14]', '> 100 % activity');

From here, focus on the item given below.
Quick one: CYP2D6 (% activity) for CC1CN(c2nc3ccc(NN=C(C#N)C#N)cc3o2)CCO1 (stereo not drawn) [Compound 15] ?
> 100 % activity

====

# measuredTarget: Tau (Homo sapiens)
# Construct: BiFC fluorescent-protein fragments (two complementary halves on two tau copies); expressed in transfected cells
# Sequence (P10636 1-441 isoform P10636-8): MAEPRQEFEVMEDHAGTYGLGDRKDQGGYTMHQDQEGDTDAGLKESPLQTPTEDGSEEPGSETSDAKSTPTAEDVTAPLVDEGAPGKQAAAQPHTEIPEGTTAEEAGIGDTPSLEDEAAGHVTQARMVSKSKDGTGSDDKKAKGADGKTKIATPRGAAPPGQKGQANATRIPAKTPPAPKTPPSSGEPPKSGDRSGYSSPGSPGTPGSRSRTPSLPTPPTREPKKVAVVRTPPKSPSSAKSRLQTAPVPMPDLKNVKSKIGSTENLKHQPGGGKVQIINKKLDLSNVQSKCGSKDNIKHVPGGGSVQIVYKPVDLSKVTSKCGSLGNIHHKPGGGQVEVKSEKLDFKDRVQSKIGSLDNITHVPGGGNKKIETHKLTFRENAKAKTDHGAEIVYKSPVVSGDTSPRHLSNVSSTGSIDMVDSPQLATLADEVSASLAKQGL
# measurementNotes: Tau aggregation inhibition in Tau-BiFC cell model (Forskolin-induced)
# Format: cell-based
# maps each entry to its pIC50
Please keep in mind that pIC50 is minus log10 of the molar concentration; only the number is needed.

Recorded results for 3 compounds are shown here.
INSERT INTO results (compound, measuredtarget, observedresult) VALUES
  ('N#CC(C#N)=NNc1ccc2nc(N3CCCC(F)C3)oc2c1 (stereo not shown)', 'Tau (Homo sapiens)', 7.92),
  ('CC1CN(c2nc3ccc(NN=C(C#N)C#N)cc3o2)CCO1 (stereo not shown)', 'Tau (Homo sapiens)', 7.32),
  ('N#CC(C#N)=NNc1ccc2nc(N3C4CCC3COC4)oc2c1', 'Tau (Homo sapiens)', 7.96);

Quick one: pIC50 for CC1CN(c2nc3ccc(NN=C(C#N)C#N)cc3o2)CC(C)O1 (stereo not shown) ?
6.89

====

# measurementNotes: Liver microsomal stability, mouse
# Format: in vitro ADME
# experimentalConditions: 1 µM compound; 0.5 mg/mL microsomes; NADPH; 30 minutes at 37°C
# maps each entry to its Mouse microsomes (% remaining)
A number alone suffices; assume % remaining.

Recorded results for 3 compounds are shown here.
INSERT INTO measurements (compound, observedresult) VALUES
  ('N#CC(C#N)=NNc1ccc2nc(N3CC4CCC(C3)O4)sc2c1', 86.6),
  ('N#CC(C#N)=NNc1ccc2nc(N3CC[C@@H](F)C3)oc2c1', 65.3),
  ('CC(=O)N1CCN(c2nc3ccc(NN=C(C#N)C#N)cc3s2)CC1', 83.8);

Quick one: Mouse microsomes (% remaining) for N#CC(C#N)=NNc1ccc2nc(NC(=O)N3CC4CCC(C3)O4)sc2c1 ?
93.4

Quick one: Mouse microsomes (% remaining) for CC1CN(c2nc3ccc(NN=C(C#N)C#N)cc3o2)CC(C)O1 (stereo not drawn) ?
86.2

Quick one: Mouse microsomes (% remaining) for Cc1nc2ccc(NN=C(C#N)C#N)cc2s1 [Comparative compound 1, reference compound] ?
1.2

Quick one: Mouse microsomes (% remaining) for N#CC(C#N)=NNc1ccc2sc(N3CCOCC3)nc2c1 ?
49.3

Quick one: Mouse microsomes (% remaining) for N#CC(C#N)=NNc1ccc2nc(N3C4CCC3COC4)oc2c1 ?
95.4

Quick one: Mouse microsomes (% remaining) for COC1CCN(c2nc3ccc(NN=C(C#N)C#N)cc3s2)CC1 ?
83.8

Quick one: Mouse microsomes (% remaining) for N#CC(C#N)=NNc1ccc2nc(N3CC4CCC(C3)O4)oc2c1 ?
99

Quick one: Mouse microsomes (% remaining) for CC1CN(c2nc3ccc(NN=C(C#N)C#N)cc3s2)CCO1 (stereo not drawn) ?
85.1

Quick one: Mouse microsomes (% remaining) for Cn1c(N2CCOCC2)nc2ccc(NN=C(C#N)C#N)cc21 ?
91.9

Quick one: Mouse microsomes (% remaining) for Cn1c(N2CCOCC2)nc2cc(NN=C(C#N)C#N)ccc21 ?
87.3

The reported measurements were obtained from patent EP4737445A1.
